target: Melanocortin receptor 3 (Homo sapiens, UniProt P41968); assay: Inhibition of [125I]-NDP-MSH (radioligand) binding to the human MC3R stably expressed in HEK293 cells; type: cell-based
Sequence (P41968 whole entry): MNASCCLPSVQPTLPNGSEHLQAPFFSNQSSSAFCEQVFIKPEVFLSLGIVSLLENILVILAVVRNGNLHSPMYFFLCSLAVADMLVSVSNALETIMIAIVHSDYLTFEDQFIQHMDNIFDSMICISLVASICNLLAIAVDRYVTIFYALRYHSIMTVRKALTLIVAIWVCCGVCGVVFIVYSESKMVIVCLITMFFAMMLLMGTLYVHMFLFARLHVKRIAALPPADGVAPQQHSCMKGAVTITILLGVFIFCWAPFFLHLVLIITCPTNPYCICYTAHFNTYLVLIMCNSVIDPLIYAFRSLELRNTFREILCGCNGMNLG
Doc: threshold 1 µM (exclusive). Items with Ki beneath it return t; others return f.

Study these solved cases before continuing.
>>> classification("NCCC(=O)N[C@H](Cc1ccc(Cl)cc1Cl)C(=O)N1CCN(C2(CNCCc3ccccc3)CCCCC2)CC1")
"f"
>>> classification("COc1cccc(CC(=O)NCC2(N3CCN(C(=O)[C@@H](Cc4ccc(Cl)cc4Cl)NC(=O)CCN)CC3)CCCCC2)c1")
"t"
>>> classification("COc1ccc(CC(=O)NCC2(N3CCN(C(=O)[C@@H](Cc4ccc(Cl)cc4Cl)NC(=O)CCN)CC3)CCCCC2)cc1")
"f"

Ki under 1 µM? Item: NCCC(=O)N[C@H](Cc1ccc(Cl)cc1Cl)C(=O)N1CCN(C2(CNC(=O)Cc3ccccc3)CCCCC2)CC1
t

Dear reviewer, please state whether NCCC(=O)N[C@H](Cc1ccc(Cl)cc1Cl)C(=O)N1CCN(C2(CNCc3ccccc3F)CCCCC2)CC1 has Ki strictly beneath 1 µM.
f

Regarding NCCC(=O)N[C@H](Cc1ccc(Cl)cc1Cl)C(=O)N1CCN(C2(CNC(=O)Cc3cccs3)CCCCC2)CC1 , kindly confirm whether its Ki is beneath 1 µM.
f

----------
Each item that follows carries a reported pKi.
target: Melanocortin receptor 4 (Homo sapiens, UniProt P32245); assay: Inhibition of [125I]NDP-MSH (radioligand) binding to the hMC4R stably expressed in HEK293 cells; type: cell-based
Sequence (P32245 whole entry): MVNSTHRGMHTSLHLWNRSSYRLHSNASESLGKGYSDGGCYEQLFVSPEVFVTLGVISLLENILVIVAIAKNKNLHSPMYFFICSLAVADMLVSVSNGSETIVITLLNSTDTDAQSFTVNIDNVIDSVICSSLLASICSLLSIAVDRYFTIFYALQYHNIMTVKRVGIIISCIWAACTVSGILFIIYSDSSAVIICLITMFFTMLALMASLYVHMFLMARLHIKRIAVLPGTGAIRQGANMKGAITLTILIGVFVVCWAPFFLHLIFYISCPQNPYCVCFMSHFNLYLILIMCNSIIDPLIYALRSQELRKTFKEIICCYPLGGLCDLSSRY
Friendly reminder that pKi comes from taking -log10 of the concentration in mol/L.

The cases that follow already have their pKi on record.
>>> quantitative_readout("NCCC(=O)N[C@H](Cc1ccc(Cl)cc1Cl)C(=O)N1CCN(C2(CNC(=O)c3ccc(Cl)cc3)CCCCC2)CC1")
6.68
>>> quantitative_readout("NCCC(=O)N[C@H](Cc1ccc(Cl)cc1Cl)C(=O)N1CCN(C2(CNC(=O)Nc3ccc([N+](=O)[O-])cc3)CCCCC2)CC1")
6.27
>>> quantitative_readout("Cc1ccc(C(=O)NCC2(N3CCN(C(=O)[C@@H](Cc4ccc(Cl)cc4Cl)NC(=O)CCN)CC3)CCCCC2)cc1")
6.57
>>> quantitative_readout("NCCC(=O)N[C@H](Cc1ccc(Cl)cc1Cl)C(=O)N1CCN(C2(CNC(=O)c3ccc(C(F)(F)F)cc3)CCCCC2)CC1")
6.47
>>> quantitative_readout("NCCC(=O)N[C@H](Cc1ccc(Cl)cc1Cl)C(=O)N1CCN(C2(CNC(=O)C(F)(F)F)CCCCC2)CC1")
6.31
>>> quantitative_readout("CC(C)CNCC1(N2CCN(C(=O)[C@@H](Cc3ccc(Cl)cc3Cl)NC(=O)CCN)CC2)CCCCC1")
6.74

Now, please, on to the next compound.
Form: Entry = NCCC(=O)N[C@H](Cc1ccc(Cl)cc1Cl)C(=O)N1CCN(C2(CNC(=O)Nc3ccc(F)cc3)CCCCC2)CC1 | System = Melanocortin receptor 4 (Homo sapiens, UniProt P32245) | pKi = ____
6.68

----------
Reported Stimulation values for the following compounds.
biological target: Melanocortin receptor 4 (Homo sapiens, UniProt P32245); experiment: Stimulation of cAMP levels in the HEK293 cell line at 10 uM; format: functional, cell-based
# value in %; strip the unit string

Answered examples (5):
>>> quantitative_readout("NCCC(=O)N[C@H](Cc1ccc(Cl)cc1Cl)C(=O)N1CCN(C2(CNC(=O)Nc3ccc(F)cc3)CCCCC2)CC1")
5.5
>>> quantitative_readout("COc1ccc(CC(=O)NCC2(N3CCN(C(=O)[C@@H](Cc4ccc(Cl)cc4Cl)NC(=O)CCN)CC3)CCCCC2)cc1")
0.6
>>> quantitative_readout("NCCC(=O)N[C@H](Cc1ccc(Cl)cc1Cl)C(=O)N1CCN(C2(CN)CCCCC2)CC1")
0.5
>>> quantitative_readout("NCCC(=O)N[C@H](Cc1ccc(Cl)cc1Cl)C(=O)N1CCN(C2(CNC(=O)Cc3ccccc3)CCCCC2)CC1")
1.6
>>> quantitative_readout("COc1ccc(CC(=O)NCC2(N3CCN(C(=O)[C@@H](Cc4ccc(Cl)cc4Cl)NC(=O)CCN)CC3)CCCCC2)cc1OC")
2.7

Need Stimulation of COc1ccc(NC(=O)NCC2(N3CCN(C(=O)[C@@H](Cc4ccc(Cl)cc4Cl)NC(=O)CCN)CC3)CCCCC2)cc1 , thanks.
1

Fill in: Stimulation of NCCC(=O)N[C@H](Cc1ccc(Cl)cc1Cl)C(=O)N1CCN(C2(CNC(=O)c3cccnc3)CCCCC2)CC1 is ___
4.3

Any idea what Stimulation was measured for NCCC(=O)N[C@H](Cc1ccc(Cl)cc1Cl)C(=O)N1CCN(C2(CNCc3ccccc3F)CCCCC2)CC1 ?
4.7
